Tested on: HIV-2 (Strain: CBL-20)
Test: Inhibition of HIV-2 replication in PBMNC (RT activity)
Format: cell-based
Settings: Human immunodeficiency virus 2, read-out: HIV-2 IC50 [RT]
attribute-measured: pIC50
Give bare numbers, as −log10 of the molar value.

# molecule, target-or-test-system, pIC50
records = [
    ("COC(=O)C(C)NP(=O)(OC[C@H]1O[C@@H](n2cc(C)c(=O)[nH]c2=O)CC1N=[N+]=[N-])Oc1ccc(Br)cc1 (some centres unmarked) [Compound 5c]", "HIV-2 (Strain: CBL-20)", 5.41),
]

// lookup pIC50 for COC(=O)C(C)NP(=O)(OC[C@@H]1C=C[C@H](n2cc(C)c(=O)[nH]c2=O)O1)Oc1ccc(Br)cc1 (some centres unmarked) [Compound 1c]
6.40

====

Test system: HIV-1 (strain: HTLVIIIB)
Experiment: microbe, parasite or virus in culture
Assay type: cell-based
Details: Human immunodeficiency virus 1; PBMNC; Table 4; read-out: PBMNC IC50 [RT]
attribute-measured: IC50 (µM)
One number for each entry, in µM.

Test system HIV-1 (strain: HTLVIIIB); read-out IC50; what value for Cc1cn([C@H]2CC[C@@H](CO)O2)c(=O)[nH]c1=O ?
0.7

====

Tested on: zidovudine-resistant primary clinical HIV-1 isolates
Test: p24 drug susceptibility assay, NRTI-/zidovudine-resistant primary clinical HIV-1 isolates in PBMC
Assay type: cell-based
Conditions: Human immunodeficiency virus 1, PBMC, read-out: IC50 (nM), Mean ± SE, All (n = 25) NRTI-resistant HIV-1 isolates, p24
attribute-measured: IC50 (nM)
Give bare numbers, in nM.

// lookup IC50 for COC(=O)C(C)NP(=O)(OC[C@@H]1C=C[C@H](n2cc(C)c(=O)[nH]c2=O)O1)Oc1ccc(Br)cc1 (stereo partly shown)
13.4

====

Test system: HIV-1 A17-variant (Y181C+K103N mutant, NNRTI-resistant)
Test: p24 antigen assay, A17-variant strain in PBMC
Format: cell-based
Settings: Human immunodeficiency virus 1, PBMC, read-out: IC50 A17V
Excerpt: In vitro assays of anti-HIV-1 activity. Viruses. 20 primary clinical isolates with genotypic and/or phenotypic NRTI-resistance (isolated in the laboratory of D. Richman) and 10 clinical isolates with phenotypic stavudine (d4T) resistance (obtained through the AIDS Research and Reference Reagent Program, NIAID) were used in the current study. […]
Can you tell me IC50 for the items I'm about to list?
Answers are plain numbers, in nM.

# compound, IC50, nM
rows = [
    ("Cc1cn([C@H]2C[C@H](N=[N+]=[N-])[C@@H](CO)O2)c(=O)[nH]c1=O [AZT, 3′-azido-3′-deoxythymidine]", 0.005),
]

Next:
// lookup IC50 for COC(=O)C(C)NP(=O)(OC[C@@H]1C=C[C@H](n2cc(C)c(=O)[nH]c2=O)O1)Oc1ccc(Br)cc1 (some centres unmarked) [Compound 1c]
47

====

Can you tell me IC50 for the items I'm about to list?
Test system: zidovudine-resistant primary clinical HIV-1 isolates in CD4-expressing HeLa cell line HT4-6C
Experiment: Syncytial focus (plaque) formation assay in HT4-6C cells
Assay type: cell-based
Details: Human immunodeficiency virus 1, HeLa, read-out: IC50, μM(Plaque Assay), isolate G190-6 (M41L, D67N, K70R, T215Y, K219Q)
Numbers only, in µM.

# compound, endpoint-unit, IC50
rows = [
    ("Cc1cn([C@H]2C[C@H](N=[N+]=[N-])[C@@H](CO)O2)c(=O)[nH]c1=O", "µM", 10),
]

// lookup IC50 for COC(=O)C(C)NP(=O)(OC[C@@H]1C=C[C@H](n2cc(C)c(=O)[nH]c2=O)O1)Oc1ccc(Br)cc1 (some centres unmarked)
0.1

====

System: HIV-1 RT-MDR (NRTI-resistant, NNRTI-resistant)
Assay: p24 antigen assay, RT-MDR strain
Type: cell-based
Conditions: Human immunodeficiency virus 1, MT2, laboratory strain RT-MDR (V106N); MT-2 cells; Table 14
attribute-measured: pIC50
Answers are plain numbers, as −log10 of the molar value.

// lookup pIC50 for Cc1ccnc2c1NC(=O)c1cccnc1N2C1CC1
4.74

====

System: NRTI-resistant recombinant HIV-1 isolates
Test: p24 assay, multi-NRTI-resistant recombinant HIV-1 clones
Assay type: cell-based
Conditions: Human immunodeficiency virus 1, read-out: IC50 (nM), p24, recombinant clone 1617-1 (151 complex)
attribute-measured: IC50 (nM)
Give bare numbers, in nM.

Examples with answers:
# compound, IC50 / nM
measured = [
    ("COC(=O)C(C)NP(=O)(OC[C@@H]1C=C[C@H](n2cc(C)c(=O)[nH]c2=O)O1)Oc1ccc(Br)cc1 (stereo partly shown) [Compound 1c]", 19.9),
    ("CC(C)(C)NC(=O)[C@@H]1CN(Cc2cccnc2)CCN1C[C@@H](O)C[C@@H](Cc1ccccc1)C(=O)N[C@H]1c2ccccc2C[C@H]1O [indinavir]", 20.5),
]

Test system NRTI-resistant recombinant HIV-1 isolates; read-out IC50; what value for Cc1cn([C@H]2C[C@H](N=[N+]=[N-])[C@@H](CO)O2)c(=O)[nH]c1=O [AZT, 3′-azido-3′-deoxythymidine] ?
320

====

Assay: in vitro
Conditions: human, CEM IC50 [MTA]
pIC50: −log10 of the molar value.
attribute-measured: pIC50

// lookup pIC50 for Cc1cn([C@H]2C[C@H](N=[N+]=[N-])[C@@H](CO)O2)c(=O)[nH]c1=O [AZT, 3′-azido-3′-deoxythymidine]
< 5.00

====

Can you tell me IC50 for the items I'm about to list?
Tested on: Zidovudine-Sensitive Primary Clinical HIV-1 Isolates
Assay: p24 drug susceptibility assay, zidovudine-sensitive primary clinical HIV-1 isolates in PBMC
Format: cell-based
Conditions: Human immunodeficiency virus 1, PBMC, read-out: IC50, μM (p24), isolate 93IN101 (—/C, India); PBMC
Answers are plain numbers, in µM.

# molecule, endpoint-unit, reported-value
data = [
    ("Cc1cn([C@H]2C=C[C@@H](CO)O2)c(=O)[nH]c1=O [d4T, 2′,3′-didehydro-2′,3′-dideoxythymidine]", "µM", 0.1),
]

Dear colleague, could you send me IC50 for each of the items below? Thanks.
1. Cc1cn([C@H]2C[C@H](N=[N+]=[N-])[C@@H](CO)O2)c(=O)[nH]c1=O
2. COC(=O)C(C)NP(=O)(OC[C@@H]1C=C[C@H](n2cc(C)c(=O)[nH]c2=O)O1)Oc1ccc(Br)cc1 (stereo partly drawn)

[0.001, 0.0005]

====

Test: Microculture tetrazolium assay (MTA) cytotoxicity in PBMNC
Conditions: human
attribute-measured: IC50 at 5 days

# compound, IC50 at 5 days
measured = [
    ("COC(=O)C(C)NP(=O)(OC[C@H]1O[C@@H](n2cc(C)c(=O)[nH]c2=O)CC1N=[N+]=[N-])Oc1ccc(Br)cc1 (some centres unmarked) [Compound 5c]", "> 10 µM"),
]

Next:
// lookup IC50 at 5 days for COC(=O)C(C)NP(=O)(OC[C@@H]1C=C[C@H](n2cc(C)c(=O)[nH]c2=O)O1)Oc1ccc(Br)cc1 (some centres unmarked) [Compound 1c]
> 10 µM

====

System: HIV-1 HTLVIIIB
Assay: microbe, parasite or virus in culture
Conditions: Human immunodeficiency virus 1, read-out: IC50 HTLVIIIB
attribute-measured: IC50 (nM)
Numbers only, in nM.

Dear colleague, could you send me IC50 for each of the items below? Thanks.
1. Cc1cn([C@H]2C=C[C@@H](CO)O2)c(=O)[nH]c1=O [d4T, 2′,3′-didehydro-2′,3′-dideoxythymidine]
2. COC(=O)C(C)NP(=O)(OC[C@@H]1C=C[C@H](n2cc(C)c(=O)[nH]c2=O)O1)Oc1ccc(Br)cc1 (stereo partly drawn)
3. Cc1cn([C@H]2C[C@H](N=[N+]=[N-])[C@@H](CO)O2)c(=O)[nH]c1=O

1. 18
2. 1
3. 4

====

Assay: in vitro
Conditions: human, PBMNC IC50 [MTA]
attribute-measured: IC50 at 5 days

// lookup IC50 at 5 days for Cc1cn([C@H]2C[C@H](N=[N+]=[N-])[C@@H](CO)O2)c(=O)[nH]c1=O [AZT, 3′-azido-3′-deoxythymidine]
> 10 µM

====

Test system: zidovudine-resistant primary clinical HIV-1 isolates
Experiment: p24 drug susceptibility assay, NRTI-/zidovudine-resistant primary clinical HIV-1 isolates in PBMC
Type: cell-based
Settings: Human immunodeficiency virus 1, PBMC, primary isolate X165-9 (K103N); Table 14
attribute-measured: pIC50
One number for each entry, as −log10 of the molar value.

// lookup pIC50 for COC(=O)C(C)NP(=O)(OC[C@@H]1C=C[C@H](n2cc(C)c(=O)[nH]c2=O)O1)Oc1ccc(Br)cc1 (stereo partly shown)
8.70
